Reference source: paper PMC11177801

Below is a list of entries, each paired with its recorded IC50 value.
System: P. falciparum chloroquine-resistant (CQR) Dd2 strain
Test: microbe, parasite or virus in culture
Assay type: cell-based
Settings: Plasmodium falciparum, DD2, read-out: antimalarial activity (IC50 in nM) Dd2

>  <molecule>
O=C(CNC(=O)c1ccc[nH]1)NC12CC3CC(CC(C3)C1)C2

>  <IC50>
> 2500 nM

$$$$
>  <molecule>
c1c[nH]c(CCCNCCNC23CC4CC(CC(C4)C2)C3)c1

>  <IC50>
> 2500 nM

$$$$
>  <molecule>
COC1=CC(c2cccn2C)=NC1=Cc1c(Cc2ccc(Cl)cc2)cc(Cc2ccc(Cl)cc2)n1C

>  <IC50>
> 2500 nM

$$$$
>  <molecule>
CCN(CC)CCCC(C)Nc1ccnc2cc(Cl)ccc12 (stereo not drawn)

>  <IC50>
115 nM

$$$$
>  <molecule>
c1c[nH]c(CNCCNC23CC4CC(CC(C4)C2)C3)c1

>  <IC50>
> 2500 nM

$$$$
>  <molecule>
CCCCCCCCCCCC1=N/C(=C\c2[nH]c(-c3ccc[nH]3)cc2OC)C=C1 [Compound 1a, undecylprodiginine, reference compound]

>  <IC50>
7.5 nM

$$$$
